Molecular target: T1, mouse PRLR on HEK293 cells (mouse, UniProt Q08501 20-608)
T1 construct: whole, on cells; also called mPRLR; HEK293/mPRLR
T1 sequence (looked up): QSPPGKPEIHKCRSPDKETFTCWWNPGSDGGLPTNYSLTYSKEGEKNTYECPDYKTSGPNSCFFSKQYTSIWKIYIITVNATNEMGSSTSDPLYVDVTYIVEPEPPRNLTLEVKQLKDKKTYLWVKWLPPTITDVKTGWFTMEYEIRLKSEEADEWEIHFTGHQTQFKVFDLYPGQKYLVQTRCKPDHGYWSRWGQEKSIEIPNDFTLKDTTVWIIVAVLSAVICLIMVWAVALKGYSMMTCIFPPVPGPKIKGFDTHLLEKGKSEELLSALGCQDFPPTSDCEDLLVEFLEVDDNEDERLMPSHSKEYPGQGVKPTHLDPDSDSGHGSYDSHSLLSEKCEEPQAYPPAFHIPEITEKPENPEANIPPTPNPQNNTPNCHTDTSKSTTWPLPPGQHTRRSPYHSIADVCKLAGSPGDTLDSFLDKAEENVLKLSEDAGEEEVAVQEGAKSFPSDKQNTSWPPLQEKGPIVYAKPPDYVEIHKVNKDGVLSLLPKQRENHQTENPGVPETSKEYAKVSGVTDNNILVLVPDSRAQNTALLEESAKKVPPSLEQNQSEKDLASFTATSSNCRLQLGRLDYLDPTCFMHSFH
Test: FACS, HEK293/mPRLR cells; note: test concentration or dose not given here
experimental-endpoint: FACS Cell Binding (Fold Above Background) (fold above background)
Answers are plain numbers, in fold above background.

Reference set (3 entries):
H1H6959N2 (antibody, human IgG1, V domains shown, also called H2M6959N2) VH: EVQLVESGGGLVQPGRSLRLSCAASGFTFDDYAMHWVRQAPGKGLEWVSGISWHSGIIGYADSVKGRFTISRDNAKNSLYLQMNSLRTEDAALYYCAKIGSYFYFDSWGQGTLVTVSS VL: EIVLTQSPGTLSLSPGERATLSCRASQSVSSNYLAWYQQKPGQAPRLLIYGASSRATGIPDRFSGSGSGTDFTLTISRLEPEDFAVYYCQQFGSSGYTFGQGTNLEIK	2
H1H6762P (antibody, human IgG1, V domains shown, human IgG1 Fc (H1H)) VH: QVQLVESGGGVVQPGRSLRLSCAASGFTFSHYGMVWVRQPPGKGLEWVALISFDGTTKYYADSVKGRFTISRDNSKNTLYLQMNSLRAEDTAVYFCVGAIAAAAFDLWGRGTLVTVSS VL: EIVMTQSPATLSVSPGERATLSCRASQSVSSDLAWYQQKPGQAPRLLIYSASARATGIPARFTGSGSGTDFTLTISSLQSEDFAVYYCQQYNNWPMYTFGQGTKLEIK	2
H1H6803P (antibody, human IgG1, V domains shown, human IgG1 Fc (H1H)) VH: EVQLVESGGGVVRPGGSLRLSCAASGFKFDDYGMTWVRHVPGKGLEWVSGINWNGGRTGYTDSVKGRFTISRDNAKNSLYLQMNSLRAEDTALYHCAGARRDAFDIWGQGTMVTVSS VL: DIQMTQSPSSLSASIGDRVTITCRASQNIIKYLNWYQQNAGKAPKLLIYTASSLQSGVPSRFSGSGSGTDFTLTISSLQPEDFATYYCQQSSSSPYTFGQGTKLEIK	1

Please give FACS Cell Binding (Fold Above Background) for each item listed below.
1. H1H6795P (antibody, human IgG1, V domains shown, human IgG1 Fc (H1H)) VH: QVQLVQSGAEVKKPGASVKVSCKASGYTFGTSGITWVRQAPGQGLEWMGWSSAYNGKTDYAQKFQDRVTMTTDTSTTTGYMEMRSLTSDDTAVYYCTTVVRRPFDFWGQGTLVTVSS VL: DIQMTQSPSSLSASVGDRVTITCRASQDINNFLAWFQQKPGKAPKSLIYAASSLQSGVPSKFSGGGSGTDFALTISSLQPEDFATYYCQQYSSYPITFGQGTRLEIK
2. H1H6765P (antibody, human IgG1, V domains shown, human IgG1 Fc (H1H)) VH: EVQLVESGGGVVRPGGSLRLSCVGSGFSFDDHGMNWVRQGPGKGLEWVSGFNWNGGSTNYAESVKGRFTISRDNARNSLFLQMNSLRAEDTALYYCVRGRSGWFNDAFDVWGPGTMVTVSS VL: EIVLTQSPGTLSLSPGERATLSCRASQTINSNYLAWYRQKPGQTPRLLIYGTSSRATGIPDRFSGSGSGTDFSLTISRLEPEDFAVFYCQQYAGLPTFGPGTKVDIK

Result:
1: 1; 2: 1
